- Target Desc: human melanocortin-4 receptor (human, UniProt P32245 1-332)
- Sequence (P32245 whole entry): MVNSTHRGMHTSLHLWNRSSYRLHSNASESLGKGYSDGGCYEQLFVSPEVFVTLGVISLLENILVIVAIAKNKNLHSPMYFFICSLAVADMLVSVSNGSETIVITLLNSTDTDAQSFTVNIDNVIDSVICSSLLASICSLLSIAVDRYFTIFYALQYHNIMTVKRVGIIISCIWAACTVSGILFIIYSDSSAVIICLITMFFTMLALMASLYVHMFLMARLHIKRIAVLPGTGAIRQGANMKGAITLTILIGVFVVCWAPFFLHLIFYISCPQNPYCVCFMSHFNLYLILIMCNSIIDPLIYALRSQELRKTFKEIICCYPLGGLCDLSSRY
- Assay Explanation: cell-based or functional assay
Positions of bridges follow the written chain, without caps; N, C: chain ends. Non-standard residues stand in square brackets, D forms with d. dPhe(3,4,5-F3) = N[C@H](Cc1cc(F)c(F)c(F)c1)C(=O)O; dPhe(4-CN) = N#Cc1ccc(C[C@@H](N)C(=O)O)cc1; dPhe(3-Cl) = N[C@H](Cc1cccc(Cl)c1)C(=O)O; dPhe(4-F) = N[C@H](Cc1ccc(F)cc1)C(=O)O; Orn = NCCC[C@H](N)C(=O)O
Result Type: EC50, cAMP, 10 ng/mL Doxycycline (nM)

RDPXRWK (N-terminal Ac; D-Phe(4-F) 4; lactam Asp 2-Lys 7; C-terminal NH2, also called No. 103) [Ac-Arg-cyclo(Asp-Pro-D-Phe(4-F)-Arg-Trp-Lys)-NH2] : 0.13
Ac-R[Orn]Q[dPhe(3,4,5-F3)]RWE-NH2 (lactam 2-7) [Ac-Arg-cyclo(Orn-Gln-D-Phe(3,4,5-triF)-Arg-Trp-Glu)-NH2] : 0.14
Ac-RKQ[dPhe(4-CN)]RWD-NH2 (lactam 2-7; SMILES CC(=O)N[C@@H](CCCNC(=N)N)C(=O)N[C@H]1CCCCNC(=O)C[C@@H](C(N)=O)NC(=O)[C@H](Cc2c[nH]c3ccccc23)NC(=O)[C@H](CCCNC(=N)N)NC(=O)[C@@H](Cc2ccc(C#N)cc2)NC(=O)[C@H](CCC(N)=O)NC1=O, also called No. 93) [Ac-Arg-cyclo(Lys-Gln-D-Phe(4-CN)-Arg-Trp-Asp)-NH2] : 0.17

I. Ac-RES[dPhe(3-Cl)]RW[Orn]-NH2 (lactam 2-7, also called No. 35) [Ac-Arg-cyclo(Glu-Ser-D-Phe(3-Cl)-Arg-Trp-Orn)-NH2]
II. Ac-REQ[dPhe(4-F)]RW[Orn]-NH2 (lactam 2-7, also called No. 92) [Ac-Arg-cyclo(Glu-Gln-D-Phe(4-F)-Arg-Trp-Orn)-NH2]
III. Ac-REN[dPhe(3,4,5-F3)]RW[Orn]-NH2 (lactam 2-7, also called No. 95) [Ac-Arg-cyclo(Glu-Asn-D-Phe(3,4,5-triF)-Arg-Trp-Orn)-NH2]
Returns the items ordered by EC50, cAMP, 10 ng/mL Doxycycline, from maximum to minimum. Answer by listing the labels in the order asked for.
I, III, II
